Where do these numbers come from? They come from patent US20240075137A1.

Target: T1, human PVRIG on cells (human, UniProt Q6DKI7 1-326)
T1 construct: whole, on cells; over-expressed on HEK cells or endogenous on Jurkat and CD8 T cells; also called hPVRIG; HEK hPVRIG cells
T1 sequence (looked up): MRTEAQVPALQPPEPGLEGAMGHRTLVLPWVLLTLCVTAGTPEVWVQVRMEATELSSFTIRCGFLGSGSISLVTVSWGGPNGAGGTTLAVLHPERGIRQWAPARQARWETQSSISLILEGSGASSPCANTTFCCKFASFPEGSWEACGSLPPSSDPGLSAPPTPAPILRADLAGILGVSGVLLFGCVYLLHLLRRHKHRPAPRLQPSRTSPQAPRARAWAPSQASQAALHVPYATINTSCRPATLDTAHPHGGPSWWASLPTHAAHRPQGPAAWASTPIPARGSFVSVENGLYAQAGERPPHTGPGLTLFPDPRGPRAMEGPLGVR
Experiment: FACS, Jurkat cells, relative to control, 3.3ug/ml
Give gMFIr Jurkat for every item shown.

Give gMFIr Jurkat for the following binder: CHA.7.522 (antibody, V domains shown) VH: QVQLQQPGSELVRPGTSVKLSCKASGYTFTSYWVHWVRQRHGQGLEWIGNVYPGSGSTNYDEKFKSKGTLTVDTSSSTAYMHLSSLTSEDSAVYYCTRGVLRFPLDYWGQGTTLTVSS VL: DIVMTQAAPSVPVTPGESVSISCRSSKSLLHSNGNTYLYWFLQRPGQSPHLLIYRMSNLASGVPDRFSGSGSGTAFTLRISRVEAEDVGVYYCMQHLEYPLTFGAGTKLELK 2.99

Give gMFIr Jurkat for the following binder: CHA.7.516 (antibody, V domains shown) VH: QVQLQQSGPELVRPGVSVKISCKVSGYTFTDYVMHWVKQSHAKSLEWIGIISPYSGNTNYNQNFKGKATMTVDKSSSTAYMALARLTSEDSAIYYCAREGDLPMFAYWGQGTLVTVSA VL: QIVLTQSPTIMSASPGEKVTMTCSASSSVSYIYWYQQNPGSSPRLLIYDTSILASGVPFRFSGSGSGTSYSLTISRMEAEDAATYYCQQWTSYPLTFGSGTKLELK 5.73

Give gMFIr Jurkat for the following binder: CHA.7.535 (antibody, V domains shown) VH: EVQLQQSGPELVKPGASVKISCKTSGYTFTKNTMHWVRQSHGKSLEWIGGINPNSGGASFNQKFMGKATLTVDKSSSTAYMELRSLTSEDSAVYYCARDGYDGDWFFDVWGAGTTVTVSS VL: DIQMNQSPFSLSASLGDTVTITCHASQNIYVWLSWYQQKPGNIPKLLIYKASDLHTGVPSRFSGSGSGTDFTLNISSLQPEDIATYYCQQGQSYPRTFGGGTKLEIK 2.79
